assay: Pharmacokinetics study of KPT-335 in cats (i.v. injection, p.o. capsules and tablets; UPLC-MS/MS, non-compartmental analysis); type: in vivo; conditions: both sexes, cat, plasma, iv, 1 mg/kg, cats, i.v. 1 mg/kg BW, 8 h, mean
measurement-kind: concentration at 8 h (ng/mL)

| smiles-representation | recorded-result |
| --- | --- |
| O=C(/C=C\n1cnc(-c2cc(C(F)(F)F)cc(C(F)(F)F)c2)n1)NNc1ccccn1 | 95.9 |

====

assay: Pharmacokinetics study of KPT-335 in cats (i.v. injection, p.o. capsules and tablets; UPLC-MS/MS, non-compartmental analysis); type: in vivo; settings: both sexes, plasma, po, 2 mg/kg, cats, p.o., Capsule, Fasting, 2 mg/kg BW; read-out: Tmax
measurement-kind: Tmax (h)

| smiles-representation | unit-tag | recorded-result |
| --- | --- | --- |
| O=C(/C=C\n1cnc(-c2cc(C(F)(F)F)cc(C(F)(F)F)c2)n1)NNc1ccccn1 | h | 1.58 |

====

Assay: Pharmacokinetics study of KPT-335 in cats (i.v. injection, p.o. capsules and tablets; UPLC-MS/MS, non-compartmental analysis)
Format: in vivo
Conditions: both sexes, plasma, po, 2 mg/kg, cats, Tablet, Feeding, 2 mg/kg BW
Method: In this study, a parallel trial design was employed, 42 adult domestic cats (21 males and 21 females), aged 1 to 2 years and weighing 2.5 ± 0.25 kg. Cats were grouped by random number, with half male and female in each group, and all cats were determined to be systemically healthy during an initial screening visit 1 week prior to the experiment. They were acclimatized to the laboratory environment for 7 days before the study commenced. […]

| compound | MRT last |
| --- | --- |
| O=C(/C=C\n1cnc(-c2cc(C(F)(F)F)cc(C(F)(F)F)c2)n1)NNc1ccccn1 [KPT-335] | 5.07 h |

====

experiment: Pharmacokinetics study of KPT-335 in cats (i.v. injection, p.o. capsules and tablets; UPLC-MS/MS, non-compartmental analysis); assay type: in vivo; settings: both sexes, cat, plasma, po, 1 mg/kg, cats, tablet p.o. 1 mg/kg BW after feeding, 0.167 h, mean; read-out: Plasma concentration Mean

| compound | unit-tag | concentration at 0.167 h |
| --- | --- | --- |
| O=C(/C=C\n1cnc(-c2cc(C(F)(F)F)cc(C(F)(F)F)c2)n1)NNc1ccccn1 [KPT-335] | ng/mL | 13.8 |

====

assay: Pharmacokinetics study of KPT-335 in cats (i.v. injection, p.o. capsules and tablets; UPLC-MS/MS, non-compartmental analysis); assay type: in vivo; settings: both sexes, plasma, po, 1 mg/kg, cats, p.o., Capsule, Fasting, 1 mg/kg BW; read-out: AUCINF_obs
measurement-kind: AUC(0-inf) (µg·h/mL)

| smiles-representation | recorded-result |
| --- | --- |
| O=C(/C=C\n1cnc(-c2cc(C(F)(F)F)cc(C(F)(F)F)c2)n1)NNc1ccccn1 | 1.42 |

====

assay: Pharmacokinetics study of KPT-335 in cats (i.v. injection, p.o. capsules and tablets; UPLC-MS/MS, non-compartmental analysis); format: in vivo; settings: male, plasma, po, 2 mg/kg, male cats, p.o., Tablet, Feeding, 2 mg/kg BW; read-out: AUClast Value males

| smiles-representation | AUC(0-t) |
| --- | --- |
| O=C(/C=C\n1cnc(-c2cc(C(F)(F)F)cc(C(F)(F)F)c2)n1)NNc1ccccn1 | 3160 ng·h/mL |

====

Test: Pharmacokinetics study of KPT-335 in cats (i.v. injection, p.o. capsules and tablets; UPLC-MS/MS, non-compartmental analysis)
Assay type: in vivo
Settings: both sexes, plasma, po, 1 mg/kg, cats, doses of 1 mg/kg BW; read-out: bioavailability of commercial tablets
Description: In this study, a parallel trial design was employed, 42 adult domestic cats (21 males and 21 females), aged 1 to 2 years and weighing 2.5 ± 0.25 kg. Cats were grouped by random number, with half male and female in each group, and all cats were determined to be systemically healthy during an initial screening visit 1 week prior to the experiment. They were acclimatized to the laboratory environment for 7 days before the study commenced. […]

| smiles-representation | bioavailability |
| --- | --- |
| O=C(/C=C\n1cnc(-c2cc(C(F)(F)F)cc(C(F)(F)F)c2)n1)NNc1ccccn1 | ~70% |

====

assay: Pharmacokinetics study of KPT-335 in cats (i.v. injection, p.o. capsules and tablets; UPLC-MS/MS, non-compartmental analysis); assay type: in vivo; details: both sexes, cat, plasma, po, 2 mg/kg, cats, tablet p.o. 2 mg/kg BW after feeding, 32 h, mean

| smiles-representation | concentration at 32 h [ng/mL] |
| --- | --- |
| O=C(/C=C\n1cnc(-c2cc(C(F)(F)F)cc(C(F)(F)F)c2)n1)NNc1ccccn1 | 2.28 |

====

assay: Pharmacokinetics study of KPT-335 in cats (i.v. injection, p.o. capsules and tablets; UPLC-MS/MS, non-compartmental analysis); format: in vivo; conditions: both sexes, cat, plasma, iv, 1 mg/kg, cats, i.v. 1 mg/kg BW, 0.5 h, mean
measurement-kind: concentration at 0.5 h

| smiles-representation | recorded-result |
| --- | --- |
| O=C(/C=C\n1cnc(-c2cc(C(F)(F)F)cc(C(F)(F)F)c2)n1)NNc1ccccn1 | 667 ng/mL |

====

experiment: Pharmacokinetics study of KPT-335 in cats (i.v. injection, p.o. capsules and tablets; UPLC-MS/MS, non-compartmental analysis); assay type: in vivo; settings: female, plasma, po, 1 mg/kg, female cats, p.o., Tablet, Fasting, 1 mg/kg BW; read-out: Cmax Value females
measurement-kind: Cmax (ng/mL)

| compound | measurement-kind | recorded-result |
| --- | --- | --- |
| O=C(/C=C\n1cnc(-c2cc(C(F)(F)F)cc(C(F)(F)F)c2)n1)NNc1ccccn1 [KPT-335] | Cmax | 220 |

====

test: Pharmacokinetics study of KPT-335 in cats (i.v. injection, p.o. capsules and tablets; UPLC-MS/MS, non-compartmental analysis); format: in vivo; settings: both sexes, plasma, po, 1 mg/kg, cats, Tablet, Feeding, 1 mg/kg BW
measurement-kind: MRT last (h)

| smiles-representation | measurement-kind | unit-tag | recorded-result |
| --- | --- | --- | --- |
| O=C(/C=C\n1cnc(-c2cc(C(F)(F)F)cc(C(F)(F)F)c2)n1)NNc1ccccn1 | MRT last | h | 5.8 |

====

assay: Pharmacokinetics study of KPT-335 in cats (i.v. injection, p.o. capsules and tablets; UPLC-MS/MS, non-compartmental analysis); type: in vivo; settings: both sexes, cat, plasma, po, 2 mg/kg, cats, tablet p.o. 2 mg/kg BW after feeding, 2 h, individual cats 1-6; read-out: Plasma concentration
measurement-kind: concentration at 2 h

| smiles-representation | measurement-kind | recorded-result |
| --- | --- | --- |
| O=C(/C=C\n1cnc(-c2cc(C(F)(F)F)cc(C(F)(F)F)c2)n1)NNc1ccccn1 | concentration at 2 h | 303 ng/mL |

====

Assay: Pharmacokinetics study of KPT-335 in cats (i.v. injection, p.o. capsules and tablets; UPLC-MS/MS, non-compartmental analysis)
Assay type: in vivo
Conditions: both sexes, cat, plasma, po, 2 mg/kg, cats, tablet p.o. 2 mg/kg BW after feeding, 2 h, mean; read-out: Plasma concentration Mean
Method: In this study, a parallel trial design was employed, 42 adult domestic cats (21 males and 21 females), aged 1 to 2 years and weighing 2.5 ± 0.25 kg. Cats were grouped by random number, with half male and female in each group, and all cats were determined to be systemically healthy during an initial screening visit 1 week prior to the experiment. They were acclimatized to the laboratory environment for 7 days before the study commenced. […]

| compound | concentration at 2 h [ng/mL] |
| --- | --- |
| O=C(/C=C\n1cnc(-c2cc(C(F)(F)F)cc(C(F)(F)F)c2)n1)NNc1ccccn1 [KPT-335] | 516 |

====

assay: Pharmacokinetics study of KPT-335 in cats (i.v. injection, p.o. capsules and tablets; UPLC-MS/MS, non-compartmental analysis); type: in vivo; settings: both sexes, cat, plasma, po, 1 mg/kg, cats, capsule p.o. 1 mg/kg BW, 1.5 h, mean; read-out: Plasma concentration Mean

| smiles-representation | unit-tag | concentration at 1.5 h |
| --- | --- | --- |
| O=C(/C=C\n1cnc(-c2cc(C(F)(F)F)cc(C(F)(F)F)c2)n1)NNc1ccccn1 | ng/mL | 250 |

====

test: Pharmacokinetics study of KPT-335 in cats (i.v. injection, p.o. capsules and tablets; UPLC-MS/MS, non-compartmental analysis); type: in vivo; conditions: both sexes, cat, plasma, po, 1 mg/kg, cats, capsule p.o. 1 mg/kg BW, 48 h, mean; read-out: Plasma concentration Mean

| smiles-representation | concentration at 48 h [ng/mL] |
| --- | --- |
| O=C(/C=C\n1cnc(-c2cc(C(F)(F)F)cc(C(F)(F)F)c2)n1)NNc1ccccn1 | 0.84 |

Every entry's value here was drawn from paper PMC12078333.
